Experimental system: Lyn (Homo sapiens, UniProt P07948)
pIC50: −log10 of the molar value.
The following molecules are shown together with reported pIC50 values.

Smiles string	pIC50
COc1ccc(Nc2ncnc(-n3c(N)nc4ccccc43)n2)cc1O	< 4.89
COc1cc(Nc2ncnc(-c3ccccc3)n2)cc(OC)c1OC	< 4.88
COc1cc(Nc2ncnc(-n3c(=O)[nH]c4ccccc43)n2)cc(OC)c1OC	4.94 to 5.05

Task item: GET pIC50 where system = Lyn (Homo sapiens, UniProt P07948) and item = `COc1cc(Nc2ncnc(-n3ncc4ccccc43)n2)cc(OC)c1OC`
Reply: 5.20 to 5.98

Task item: GET pIC50 where system = Lyn (Homo sapiens, UniProt P07948) and item = `COCCOc1cc(Nc2ncnc(Nc3ccc(C)c(O)c3)n2)ccc1OC`
Reply: > 6.00

Task item: GET pIC50 where system = Lyn (Homo sapiens, UniProt P07948) and item = `COc1cc(Nc2ncnc(N3CCCc4ccccc43)n2)cc(OC)c1OC`
Reply: > 5.99

Task item: GET pIC50 where system = Lyn (Homo sapiens, UniProt P07948) and item = `COc1cccc(Nc2ncnc(Nc3cc(OC)c(OC)c(OC)c3)n2)c1`
Reply: 5.20 to 5.98

Task item: GET pIC50 where system = Lyn (Homo sapiens, UniProt P07948) and item = `NC(=O)c1ccc(Nc2ncnc(-c3cccnc3NCc3ccccc3)n2)cc1`
Reply: 5.06 to 5.22

Task item: GET pIC50 where system = Lyn (Homo sapiens, UniProt P07948) and item = `COc1cc(Nc2ncnc(-n3c(NCc4ccc([N+](=O)[O-])cc4)nc4ccccc43)n2)cc(OC)c1OC`
Reply: > 6.12

Task item: GET pIC50 where system = Lyn (Homo sapiens, UniProt P07948) and item = `COc1cc(Nc2ncnc(-n3ccc4c(OC)cccc43)n2)cc(OC)c1OC`
Reply: < 4.96

Task item: GET pIC50 where system = Lyn (Homo sapiens, UniProt P07948) and item = `CCOc1ccc(Nc2ncnc(Nc3ccc(C)c(O)c3)n2)cc1OCC`
Reply: > 5.98

====

Experimental system: EGFR (Homo sapiens, UniProt P00533)
Construct: Kinases are expressed as either kinase domains or full length constructs; made in house
Sequence (P00533 25-1210, species assumed): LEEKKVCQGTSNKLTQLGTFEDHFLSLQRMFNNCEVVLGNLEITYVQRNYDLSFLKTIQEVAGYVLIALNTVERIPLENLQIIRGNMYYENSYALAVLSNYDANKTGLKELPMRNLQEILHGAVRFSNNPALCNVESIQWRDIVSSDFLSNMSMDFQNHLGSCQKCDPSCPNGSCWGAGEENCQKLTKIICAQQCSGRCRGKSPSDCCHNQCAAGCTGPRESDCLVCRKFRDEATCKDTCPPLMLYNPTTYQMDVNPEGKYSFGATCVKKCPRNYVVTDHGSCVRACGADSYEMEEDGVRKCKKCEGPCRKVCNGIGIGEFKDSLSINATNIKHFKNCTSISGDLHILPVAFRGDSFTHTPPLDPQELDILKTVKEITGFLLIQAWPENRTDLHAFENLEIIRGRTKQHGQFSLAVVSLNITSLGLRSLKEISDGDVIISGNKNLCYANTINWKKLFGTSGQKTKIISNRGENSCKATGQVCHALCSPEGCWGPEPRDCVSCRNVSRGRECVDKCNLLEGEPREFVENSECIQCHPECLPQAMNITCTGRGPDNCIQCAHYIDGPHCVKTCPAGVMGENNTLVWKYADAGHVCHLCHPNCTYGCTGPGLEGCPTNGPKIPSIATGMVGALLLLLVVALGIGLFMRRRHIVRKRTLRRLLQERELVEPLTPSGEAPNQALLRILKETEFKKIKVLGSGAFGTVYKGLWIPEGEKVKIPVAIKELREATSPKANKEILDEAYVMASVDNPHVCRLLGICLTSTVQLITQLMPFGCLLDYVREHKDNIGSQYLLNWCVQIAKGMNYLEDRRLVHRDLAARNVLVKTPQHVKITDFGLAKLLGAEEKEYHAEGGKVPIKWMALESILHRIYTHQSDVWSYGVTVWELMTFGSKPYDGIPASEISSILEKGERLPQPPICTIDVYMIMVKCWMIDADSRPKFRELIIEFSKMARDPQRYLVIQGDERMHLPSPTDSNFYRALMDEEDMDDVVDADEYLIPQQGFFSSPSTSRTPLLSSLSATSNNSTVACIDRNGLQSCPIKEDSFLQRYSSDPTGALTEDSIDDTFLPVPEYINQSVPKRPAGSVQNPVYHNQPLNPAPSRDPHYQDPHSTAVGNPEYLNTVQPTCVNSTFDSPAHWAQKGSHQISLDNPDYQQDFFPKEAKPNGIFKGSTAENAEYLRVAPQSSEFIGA
Measurement protocol: Kinase inhibition assay (33P transfer), EGFR
Assay type: biochemical
Settings: Table 2, kinase inhibition class; read-out: EGFR-1
pIC50: −log10 of the molar value.
The following compounds are shown together with reported pIC50 values.

Recorded pIC50, per entry:
Compound	pIC50
C#Cc1cccc(Nc2ncnc(Nc3cc(OC)c(OC)c(OC)c3)n2)c1	> 5.97
CNc1ncnc(Nc2cc(OC)c(OC)c(OC)c2)n1	< 4.81
COc1cc(Nc2ncnc(-n3ccc4cc(F)ccc43)n2)cc(OC)c1OC	< 4.94

Task item: Tell me pIC50 reported for `COc1cc(Nc2ncnc(-n3c(NCc4ccc(OC(F)(F)F)cc4)nc4ccccc43)n2)cc(OC)c1OC`
Reply: < 5.10

Task item: Tell me pIC50 reported for `COc1cc(Nc2ncnc(-n3c(NC(=O)c4ccccc4)nc4ccccc43)n2)cc(OC)c1OC`
Reply: < 5.04

====

Experimental system: Zap-70 (Homo sapiens, UniProt P43403)
Construct: Kinases are expressed as either kinase domains or full length constructs; made in house
Sequence (P43403 whole entry, species assumed, the tested form may be a part): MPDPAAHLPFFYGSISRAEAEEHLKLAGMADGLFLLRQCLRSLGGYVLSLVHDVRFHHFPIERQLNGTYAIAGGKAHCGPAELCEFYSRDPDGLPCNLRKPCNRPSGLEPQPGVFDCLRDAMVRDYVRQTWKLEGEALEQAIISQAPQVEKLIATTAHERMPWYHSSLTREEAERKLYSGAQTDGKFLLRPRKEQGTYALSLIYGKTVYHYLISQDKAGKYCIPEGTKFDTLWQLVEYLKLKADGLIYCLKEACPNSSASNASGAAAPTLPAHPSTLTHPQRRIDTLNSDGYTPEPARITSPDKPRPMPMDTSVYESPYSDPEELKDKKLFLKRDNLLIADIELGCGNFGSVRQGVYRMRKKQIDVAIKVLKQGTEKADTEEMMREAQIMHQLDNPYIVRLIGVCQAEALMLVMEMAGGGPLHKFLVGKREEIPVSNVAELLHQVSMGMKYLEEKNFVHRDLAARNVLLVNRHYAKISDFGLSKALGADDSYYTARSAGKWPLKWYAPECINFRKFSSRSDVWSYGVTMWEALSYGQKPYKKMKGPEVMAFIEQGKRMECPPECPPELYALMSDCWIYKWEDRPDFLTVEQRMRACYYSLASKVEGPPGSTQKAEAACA
Measurement protocol: Kinase inhibition assay (33P transfer), Zap-70
Assay type: biochemical
Settings: Table 3; read-out: Zap-1
Assay metric: IC50

Recorded IC50, per entry:
Compound	Experimental system	Readout value
COc1cc(Nc2ncnc(Nc3ccc4[nH]ncc4c3)n2)cc(OC)c1OC [Compound 79]	Zap-70 (Homo sapiens, UniProt P43403)	> 11.4 µM
COc1cc(Nc2ncnc(-c3ccc(F)cc3)n2)cc(OC)c1OC [Compound 222]	Zap-70 (Homo sapiens, UniProt P43403)	> 12.6 µM
COc1cc(Nc2ncnc(Nc3ccc(OCc4ccccc4)cc3)n2)cc(OC)c1 [Compound 156]	Zap-70 (Homo sapiens, UniProt P43403)	> 10.5 µM

Task item: Tell me IC50 reported for COc1cc(Nc2ncnc(-n3cnc4ccccc43)n2)cc(OC)c1OC [Compound 186]
Reply: > 11.9 µM

Task item: Tell me IC50 reported for COc1cc(Nc2ncnc(NN3CCOCC3)n2)cc(OC)c1OC [Compound 103]
Reply: > 12.4 µM

Task item: Tell me IC50 reported for COc1cc(Nc2ncnc(Nc3ccc(NC(=O)OC(C)(C)C)cc3)n2)cc(OC)c1OC [Compound 69]
Reply: > 9.6 µM

Task item: Tell me IC50 reported for COc1cc(Nc2ncnc(N(CC(=O)OC(C)(C)C)c3ccc(Cl)cc3)n2)cc(OC)c1OC [Compound 291]
Reply: > 8.96 µM

Task item: Tell me IC50 reported for COc1cc(Nc2ncnc(-n3c(NC(=O)c4ccccc4)nc4ccccc43)n2)cc(OC)c1OC [Compound 435]
Reply: > 9.04 µM

Task item: Tell me IC50 reported for Cc1ccc(Nc2ncnc(N)n2)cc1 [Compound 1017]
Reply: > 22.4 µM

Task item: Tell me IC50 reported for COc1ccc(Nc2ncnc(Nc3ccc(OCc4ccccc4)cc3)n2)cc1 [Compound 161]
Reply: > 11.3 µM

Task item: Tell me IC50 reported for COCCOc1ccc(Nc2ncnc(Nc3ccc(C)c(O)c3)n2)cc1OCCOC [Compound 125]
Reply: > 10.2 µM

Task item: Tell me IC50 reported for COc1cc(Nc2ncnc(Nc3cc(C)c(O)cc3C)n2)cc(OC)c1OC [Compound 94]
Reply: > 11.3 µM

Task item: Tell me IC50 reported for COc1ccc(Nc2ncnc(N(C/C=C/c3ccccc3)c3ccc(Cl)cc3)n2)cc1OC [Compound 974]
Reply: > 9.49 µM

====

The following compounds are shown together with reported IC50 values.
Experimental system: Kdr (Homo sapiens)
Construct: Kinases are expressed as either kinase domains or full length constructs; made in house
Sequence (P35968 20-1356, species assumed): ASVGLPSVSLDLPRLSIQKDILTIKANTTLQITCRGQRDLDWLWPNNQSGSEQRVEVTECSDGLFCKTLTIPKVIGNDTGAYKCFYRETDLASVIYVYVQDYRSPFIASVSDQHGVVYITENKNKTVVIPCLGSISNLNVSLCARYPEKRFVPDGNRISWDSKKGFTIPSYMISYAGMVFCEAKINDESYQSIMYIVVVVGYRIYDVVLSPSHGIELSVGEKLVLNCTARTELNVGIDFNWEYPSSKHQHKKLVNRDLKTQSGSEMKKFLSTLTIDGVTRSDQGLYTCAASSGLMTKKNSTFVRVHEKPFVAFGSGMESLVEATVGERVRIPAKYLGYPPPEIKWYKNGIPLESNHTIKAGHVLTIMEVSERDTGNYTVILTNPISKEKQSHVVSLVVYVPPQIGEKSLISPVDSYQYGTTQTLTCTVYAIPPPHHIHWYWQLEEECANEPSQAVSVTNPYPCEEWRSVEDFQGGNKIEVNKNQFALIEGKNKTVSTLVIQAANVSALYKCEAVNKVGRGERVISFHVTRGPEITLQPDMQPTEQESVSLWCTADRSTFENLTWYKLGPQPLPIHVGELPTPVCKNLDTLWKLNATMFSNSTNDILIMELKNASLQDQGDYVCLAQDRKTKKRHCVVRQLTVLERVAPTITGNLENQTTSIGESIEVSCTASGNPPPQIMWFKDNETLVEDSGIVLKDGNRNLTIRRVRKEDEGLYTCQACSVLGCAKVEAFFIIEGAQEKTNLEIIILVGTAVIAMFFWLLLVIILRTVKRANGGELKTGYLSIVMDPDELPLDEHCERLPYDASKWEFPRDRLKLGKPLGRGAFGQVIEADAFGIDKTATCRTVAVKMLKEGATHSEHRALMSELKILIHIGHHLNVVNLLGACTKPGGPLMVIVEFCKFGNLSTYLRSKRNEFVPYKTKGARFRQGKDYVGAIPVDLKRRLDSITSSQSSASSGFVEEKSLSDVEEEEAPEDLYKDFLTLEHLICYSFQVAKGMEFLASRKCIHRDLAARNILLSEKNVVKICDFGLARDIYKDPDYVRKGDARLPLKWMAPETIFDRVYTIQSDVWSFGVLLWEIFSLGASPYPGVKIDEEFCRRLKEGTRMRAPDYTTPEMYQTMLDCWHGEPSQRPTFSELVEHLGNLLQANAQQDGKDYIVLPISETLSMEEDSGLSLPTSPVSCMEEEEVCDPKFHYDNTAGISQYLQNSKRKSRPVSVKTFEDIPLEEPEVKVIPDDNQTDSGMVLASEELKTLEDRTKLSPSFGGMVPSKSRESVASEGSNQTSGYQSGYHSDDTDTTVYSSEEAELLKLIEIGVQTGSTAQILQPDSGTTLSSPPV
Measurement protocol: Kinase inhibition assay (33P transfer), Kdr
Format: biochemical
Settings: Table 3; read-out: KDR-1

Compound	Assay metric	Readout value
COc1cc(Nc2ncnc(-c3ccccc3)n2)cc(OC)c1OC	IC50	< 1180 nM
COc1ccc(Nc2ncnc(Nc3ccc(Oc4ccccc4)cc3)n2)cc1OC	IC50	963 to 5780 nM
COc1cc(Nc2ncnc(Nc3ccc(Cl)cc3F)n2)cc(OC)c1OC	IC50	< 986 nM
COc1cc(Nc2ncnc(N3CCCC4CCCCC43)n2)cc(OC)c1OC (stereo not shown)	IC50	< 1000 nM
COc1cc(Nc2ncnc(-n3c(NCCCCO)nc4ccccc43)n2)cc(OC)c1OC	IC50	859 to 5160 nM
COc1cc(Nc2ncnc(Nc3ccc(O)cc3Cl)n2)cc(OC)c1OC	IC50	< 991 nM

# ---- query compound ----
Task item: GET IC50 where system = Kdr (Homo sapiens) and item = `COc1cc(C)c(Nc2ncnc(Nc3cc(-c4ccco4)n[nH]3)n2)cc1OC`
Reply: 1020 to 6100 nM

====

List of pIC50 tested on Flt-1 (Homo sapiens, UniProt P17948).
Sequence (P17948 27-1338, species assumed): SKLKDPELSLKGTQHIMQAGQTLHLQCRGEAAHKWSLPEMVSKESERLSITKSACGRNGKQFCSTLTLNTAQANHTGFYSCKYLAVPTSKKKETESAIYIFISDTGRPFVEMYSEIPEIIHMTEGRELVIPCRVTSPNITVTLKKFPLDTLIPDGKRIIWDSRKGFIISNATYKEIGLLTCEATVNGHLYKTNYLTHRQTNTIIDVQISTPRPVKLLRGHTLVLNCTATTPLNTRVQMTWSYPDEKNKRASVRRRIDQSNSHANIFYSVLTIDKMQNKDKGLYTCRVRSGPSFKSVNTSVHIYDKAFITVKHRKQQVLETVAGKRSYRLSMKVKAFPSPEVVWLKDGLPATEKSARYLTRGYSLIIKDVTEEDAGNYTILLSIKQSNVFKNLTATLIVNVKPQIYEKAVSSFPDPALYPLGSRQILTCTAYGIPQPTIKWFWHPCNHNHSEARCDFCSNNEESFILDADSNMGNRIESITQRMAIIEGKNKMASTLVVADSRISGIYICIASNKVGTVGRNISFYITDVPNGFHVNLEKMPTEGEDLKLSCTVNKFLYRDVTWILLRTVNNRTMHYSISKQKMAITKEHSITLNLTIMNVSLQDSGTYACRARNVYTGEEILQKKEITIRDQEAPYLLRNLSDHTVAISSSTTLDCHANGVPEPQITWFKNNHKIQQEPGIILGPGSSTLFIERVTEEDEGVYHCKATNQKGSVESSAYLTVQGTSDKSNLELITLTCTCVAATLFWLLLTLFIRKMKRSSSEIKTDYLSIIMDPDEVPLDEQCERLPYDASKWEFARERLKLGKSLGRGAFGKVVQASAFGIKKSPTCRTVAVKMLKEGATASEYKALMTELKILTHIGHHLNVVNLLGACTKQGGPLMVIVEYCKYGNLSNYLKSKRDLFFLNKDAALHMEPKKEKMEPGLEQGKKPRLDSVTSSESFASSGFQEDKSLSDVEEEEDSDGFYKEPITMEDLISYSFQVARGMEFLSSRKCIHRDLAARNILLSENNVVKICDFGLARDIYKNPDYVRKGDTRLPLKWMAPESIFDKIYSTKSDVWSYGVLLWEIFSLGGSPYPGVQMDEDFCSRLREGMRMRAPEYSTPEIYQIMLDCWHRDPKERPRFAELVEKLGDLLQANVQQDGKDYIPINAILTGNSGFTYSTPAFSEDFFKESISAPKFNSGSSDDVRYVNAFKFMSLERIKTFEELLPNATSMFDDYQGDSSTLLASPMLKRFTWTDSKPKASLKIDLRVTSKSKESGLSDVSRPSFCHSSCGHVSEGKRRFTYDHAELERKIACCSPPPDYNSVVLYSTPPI
pIC50: −log10 of the molar value.

Recorded pIC50, per entry:
Smiles string	Experimental system	pIC50
NC(=O)c1cccc(Nc2ncnc(Nc3cc(-c4ccco4)n[nH]3)n2)c1	Flt-1 (Homo sapiens, UniProt P17948)	> 5.96
COc1cc(Nc2ncnc(Nc3cc(-c4ccccc4)nn3C)n2)cc(OC)c1OC	Flt-1 (Homo sapiens, UniProt P17948)	> 6.03
COc1cc(Nc2ncnc(N3CCCCC3)n2)cc(OC)c1OC	Flt-1 (Homo sapiens, UniProt P17948)	5.16 to 5.94

# ---- query compound ----
Task item: Tell me pIC50 reported for `COc1cc(Nc2ncnc(-n3c(=O)[nH]c4ccccc43)n2)cc(OC)c1OC`
Reply: > 5.99

====

Experimental system: AKT (Homo sapiens, UniProt Q9Y243)
Construct: Kinases are expressed as either kinase domains or full length constructs; made in house
Sequence (Q9Y243 whole entry, the tested form may be a part): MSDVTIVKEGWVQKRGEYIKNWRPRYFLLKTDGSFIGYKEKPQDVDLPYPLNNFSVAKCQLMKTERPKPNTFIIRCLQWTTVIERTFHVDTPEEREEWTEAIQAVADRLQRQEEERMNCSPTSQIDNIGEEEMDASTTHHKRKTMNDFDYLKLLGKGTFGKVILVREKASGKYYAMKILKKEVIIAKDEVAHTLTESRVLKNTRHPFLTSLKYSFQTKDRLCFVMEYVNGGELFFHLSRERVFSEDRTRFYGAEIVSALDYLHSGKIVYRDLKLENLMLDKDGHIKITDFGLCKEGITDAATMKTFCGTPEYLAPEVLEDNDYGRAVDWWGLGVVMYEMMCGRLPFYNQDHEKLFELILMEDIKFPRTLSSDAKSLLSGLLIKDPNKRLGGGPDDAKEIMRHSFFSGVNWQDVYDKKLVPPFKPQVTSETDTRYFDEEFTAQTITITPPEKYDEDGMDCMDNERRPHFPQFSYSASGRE
Measurement protocol: Kinase inhibition assay (33P transfer), AKT
Type: biochemical
Settings: Table 2, kinase inhibition class; read-out: AKT3-1
Assay metric: IC50

Recorded IC50, per entry:
Molecule	Readout value
CN(c1cccc(Cl)c1)c1ncnc(-n2c(N)nc3ccccc32)n1 [Compound 664]	6.82 to 9.95 µM
COc1cc(Nc2ncnc(Nc3cccc(CN4CCN(C)CC4)c3)n2)cc(OC)c1OC [Compound 1047]	> 9.67 µM
COc1ccc(N(C)c2ncnc(Nc3cc(OC)c(OC)c(OC)c3)n2)cc1 [Compound 106]	> 11.3 µM

Task item: Tell me IC50 reported for COc1ccc(Nc2ncnc(Nc3cc(OC)c(OC)c(OC)c3)n2)cc1O [Compound 931]
Reply: > 11.3 µM

Task item: Tell me IC50 reported for COc1cc(C)c(Nc2ncnc(-c3cccs3)n2)cc1OC [Compound 359]
Reply: > 13.7 µM

Task item: Tell me IC50 reported for CCN(c1ccc(C)cc1)c1ncnc(Nc2cc(OC)c(OC)c(OC)c2)n1 [Compound 538]
Reply: > 11.4 µM
